FYI, the data here is from patent US12006294B2.

# Test system: CAD5 cells
# Type: cell-based

- MOLECULE: "N=C(N)N/N=C/c1cccc(Cl)c1 [BC2-9-1, acetate]"
  Elispot (vs PC): 0.69
- MOLECULE: "N=C(N)N/N=C/c1ccccc1Br [BC1-297-1, acetate]"
  Elispot (vs PC): 1.08
- MOLECULE: "N=C(N)N/N=C/c1ccc(Cl)cc1 [BC2-13-1, acetate]"
  Elispot (vs PC): 1.38
- MOLECULE: "N=C(N)N/N=C\\c1c(Cl)cc(O)cc1Cl"
  Elispot (vs PC): 1.00
- MOLECULE: "COc1cccc(Cl)c1/C=N/NC(=N)N [BC2-25-1, acetate]"
  Elispot (vs PC): 0.92
- MOLECULE: "N=C(N)N/N=C/c1c(N)cccc1Cl"
  Elispot (vs PC): 1.08
- MOLECULE: "NC(N)=N/N=C/c1ccccc1Cl [Sephin 1, reference compound]"
  Elispot (vs PC): 0.62
- MOLECULE: "N=C(N)N/N=C/c1ccc(Cl)cc1F [BC2-19-1, acetate]"
  Elispot (vs PC): 1.38
- MOLECULE: "N=C(N)N/N=C/c1ccc(F)cc1Cl [BC2-17-1, acetate]"
  Elispot (vs PC): 1.00
- MOLECULE: "Cl.NC(=O)N/N=C/c1c(Cl)cccc1Cl"
  Elispot (vs PC): 0.54
- MOLECULE: "N=C(N)N/N=C/c1ccccc1 [BC1-295-1, acetate]"
  Elispot (vs PC): 0.46

---

# Tested on: Hela Cells
# TEST PROTOCOL: Cellular ER stress model (tunicamycin, WST-8 cell viability)
# RUN PARAMETERS: Homo sapiens, HeLa, 48 h, read-out: % Cell Survival Cmpd(2.5 μM) + Tuni, Hela cells, compound 2.5 μM + tunicamycin, WST-8 viability 48 hours after tunicamycin treatment
Where a name gives a salt, the structure may show the parent alone.
MEASURED ATTRIBUTE: viability at 2.5 µM (%)

- MOLECULE: "CC(Oc1c(Cl)cccc1Cl)C1=NCCN1 (stereo not drawn) [Lofexidine Hcl]"
  READING UNIT: "%"
  TEST VALUE: 35.4
- MOLECULE: "N=C(N)N/N=C/c1ccc(Br)cc1Cl [JM3-57-2, acetate]"
  READING UNIT: "%"
  TEST VALUE: 28.1
- MOLECULE: "COc1cc(Cl)c(/C=N/NC(=N)N)c(Cl)c1"
  READING UNIT: "%"
  TEST VALUE: 44.6
- MOLECULE: "N=C(N)N/N=C/c1cc(C(F)(F)F)ccc1Cl [JM1-221-2, acetate]"
  READING UNIT: "%"
  TEST VALUE: 38.6
- MOLECULE: "N=C(N)N/N=C/c1ccccc1[N+](=O)[O-] [JM3-13-2, acetate]"
  READING UNIT: "%"
  TEST VALUE: 27.4
- MOLECULE: "Cc1[nH]c(N/N=C/c2cccc(Cl)c2Cl)nc(=O)c1C"
  READING UNIT: "%"
  TEST VALUE: 29.7
- MOLECULE: "N=C(N)NC(=O)Cc1c(Cl)cccc1Cl [JM2-287-2, hydrochloride]"
  READING UNIT: "%"
  TEST VALUE: 33
- MOLECULE: "N=C(N)NC(=O)Cc1c(Cl)cccc1[N+](=O)[O-] [JM2-275-2, hydrochloride]"
  READING UNIT: "%"
  TEST VALUE: 29.8
- MOLECULE: "Clc1cccc(Cl)c1Cc1ncc[nH]1"
  READING UNIT: "%"
  TEST VALUE: 22.8

---

// reported Elispot (vs PC) per item
# Test system: CAD5 cells
# Assay type: cell-based

- MOLECULE: "N=C(N)NCCc1c(Cl)cccc1Cl"
  Elispot (vs PC): 1.38
- MOLECULE: "N=C(N)N/N=C\\c1c(Cl)cccc1Cl [BC1-55-1, acetate]"
  Elispot (vs PC): 1.69
- MOLECULE: "C/C(=N\\NC(=N)N)c1c(Cl)cccc1Cl"
  Elispot (vs PC): 0.62
- MOLECULE: "N=C(N)N/N=C/c1c(I)cccc1I"
  Elispot (vs PC): 1.00
- MOLECULE: "N=C(N)Nn1ccnc1-c1c(Cl)cccc1Cl"
  Elispot (vs PC): 1.00
- MOLECULE: "N=C(N)N/N=C/c1c(Cl)cccc1C(F)(F)F [BC2-45-1, acetate]"
  Elispot (vs PC): 1.62
- MOLECULE: "N=C(N)N/N=C/c1c(O)cccc1Cl [BC2-59-1, acetate]"
  Elispot (vs PC): 1.08
- MOLECULE: "N=C(N)N/N=C/c1ccccc1N"
  Elispot (vs PC): 0.62
- MOLECULE: "N=C(N)N/N=C/c1cccc(Cl)c1Cl [BC2-7-1, acetate]"
  Elispot (vs PC): 1.00
- MOLECULE: "N=C(N)N/N=C/c1c(Cl)ccc(Cl)c1Cl [BC1-282-1, acetate]"
  Elispot (vs PC): 1.31
- MOLECULE: "Cc1ccccc1/C=N/NC(=N)N [BC2-3-1, acetate]"
  Elispot (vs PC): 0.54
- MOLECULE: "N=C(N)Nc1c(Cl)cccc1Cl"
  Elispot (vs PC): 0.69
- MOLECULE: "Clc1cc(Cl)cc(NC2=NCCN2)c1"
  Elispot (vs PC): 0.54
- MOLECULE: "N=C(N)N/N=C/c1c(Cl)cc(O)cc1Cl [BC1-167-1, acetate]"
  Elispot (vs PC): 1.15
- MOLECULE: "N=C(N)N/N=C/c1c(F)cccc1Cl [BC2-5-1, acetate]"
  Elispot (vs PC): 0.62
- MOLECULE: "N=C(N)N/N=C/c1ccccc1F [BC2-11-1, acetate]"
  Elispot (vs PC): 0.62

---

# Test system: CAD5 cells
# Format: cell-based
I'd appreciate it if you marked entries criterion met when EliSpot (Spots/10000 Cells) is lower than 1000 Spots/10000 Cells and criterion not met when it is not.

- COMPOUND: "N=C(N)N/N=C/c1c(Cl)cccc1C(F)(F)F [BC2-45-1, acetate]"
  ASSIGNED CLASS: "criterion not met"
- COMPOUND: "N=C(N)Nn1ccnc1-c1c(Cl)cccc1Cl [BC1-267-2]"
  ASSIGNED CLASS: "criterion not met"
- COMPOUND: "N=C(N)N/N=C/c1cccc(Cl)c1 [BC2-9-1, acetate]"
  ASSIGNED CLASS: "criterion met"
- COMPOUND: "N=C(N)NCCc1c(Cl)cccc1Cl [BC1-252-2, 1-(2,6-dichlorophenethyl)guanidine]"
  ASSIGNED CLASS: "criterion not met"
- COMPOUND: "N=C(N)N/N=C/c1ccc(Cl)cc1 [BC2-13-1, acetate]"
  ASSIGNED CLASS: "criterion not met"
- COMPOUND: "N=C(N)N/N=C/c1c(F)cccc1Cl [BC2-5-1, acetate]"
  ASSIGNED CLASS: "criterion met"
- COMPOUND: "N=C(N)N/N=C\\c1c(Cl)cccc1Cl [BC1-55-1, acetate]"
  ASSIGNED CLASS: "criterion not met"
- COMPOUND: "N=C(N)N/N=C/c1ccccc1N [BC2-61-2]"
  ASSIGNED CLASS: "criterion met"
- COMPOUND: "Cl.NC(=O)N/N=C/c1c(Cl)cccc1Cl [BC1-262-1]"
  ASSIGNED CLASS: "criterion met"
- COMPOUND: "N=C(N)N/N=C/c1ccc(F)cc1Cl [BC2-17-1, acetate]"
  ASSIGNED CLASS: "criterion not met"
- COMPOUND: "N=C(N)N/N=C/c1c(O)cccc1Cl [BC2-59-1, acetate]"
  ASSIGNED CLASS: "criterion not met"
- COMPOUND: "N=C(N)N/N=C\\c1c(Cl)cc(O)cc1Cl [BC1-171-1]"
  ASSIGNED CLASS: "criterion not met"
- COMPOUND: "N=C(N)Nc1c(Cl)cccc1Cl [BC1-256-2, 1-(2,6-dichlorophenyl)guanidine]"
  ASSIGNED CLASS: "criterion met"
- COMPOUND: "N=C(N)N/N=C/c1c(Cl)cc(O)cc1Cl [BC1-167-1, acetate]"
  ASSIGNED CLASS: "criterion not met"
- COMPOUND: "COc1cccc(Cl)c1/C=N/NC(=N)N [BC2-25-1, acetate]"
  ASSIGNED CLASS: "criterion not met"
- COMPOUND: "N=C(N)N/N=C/c1ccccc1Br [BC1-297-1, acetate]"
  ASSIGNED CLASS: "criterion not met"
- COMPOUND: "N=C(N)N/N=C/c1c(N)cccc1Cl [BC2-61-1]"
  ASSIGNED CLASS: "criterion not met"
- COMPOUND: "N=C(N)N/N=C/c1cccc(Cl)c1Cl [BC2-7-1, acetate]"
  ASSIGNED CLASS: "criterion not met"
- COMPOUND: "N=C(N)N/N=C/c1ccc(Cl)cc1F [BC2-19-1, acetate]"
  ASSIGNED CLASS: "criterion not met"
- COMPOUND: "NC(N)=N/N=C/c1ccccc1Cl [Sephin 1, reference compound]"
  ASSIGNED CLASS: "criterion met"
- COMPOUND: "N=C(N)N/N=C/c1ccccc1F [BC2-11-1, acetate]"
  ASSIGNED CLASS: "criterion met"
- COMPOUND: "Cc1ccccc1/C=N/NC(=N)N [BC2-3-1, acetate]"
  ASSIGNED CLASS: "criterion met"
- COMPOUND: "N=C(N)N/N=C/c1c(I)cccc1I [BC2-55-2]"
  ASSIGNED CLASS: "criterion not met"
- COMPOUND: "C/C(=N\\NC(=N)N)c1c(Cl)cccc1Cl [BC1-259-2]"
  ASSIGNED CLASS: "criterion met"
- COMPOUND: "N=C(N)N/N=C/c1ccccc1 [BC1-295-1, acetate]"
  ASSIGNED CLASS: "criterion met"
- COMPOUND: "Clc1cc(Cl)cc(NC2=NCCN2)c1 [BC1-242-2]"
  ASSIGNED CLASS: "criterion met"
- COMPOUND: "N=C(N)N/N=C/c1c(Cl)ccc(Cl)c1Cl [BC1-282-1, acetate]"
  ASSIGNED CLASS: "criterion not met"
